Biological target: mutant MGL (Homo sapiens, UniProt Q99685, L169S/L176S)
Sequence (Q99685 1-303 L169S/L176S): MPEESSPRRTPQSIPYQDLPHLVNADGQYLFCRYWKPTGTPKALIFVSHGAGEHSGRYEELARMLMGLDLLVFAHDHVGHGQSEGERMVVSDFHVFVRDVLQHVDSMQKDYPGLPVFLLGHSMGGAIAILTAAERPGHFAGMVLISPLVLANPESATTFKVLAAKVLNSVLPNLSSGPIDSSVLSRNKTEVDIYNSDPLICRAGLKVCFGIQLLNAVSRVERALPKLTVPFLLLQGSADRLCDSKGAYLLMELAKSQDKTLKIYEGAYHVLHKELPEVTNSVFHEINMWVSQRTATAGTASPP
Experiment: MGL ThermoFluor assay - mutant
Format: binding
Details: ThermoFluor, compound concentration measured by qNMR, read-out: MGL mutant ThermoFluor qKd (using qNMR conc.)
Please respond with reported Kd for every item in the list.
Give bare numbers, in nM.

Use these answered entries as a reference point.
COMPOUND_SMILES	READOUT	OBSERVED
CCCCC/C=C\C/C=C\CCCCCCCC(=O)N1CC(N2CCN(C(=O)c3nccs3)CC2)C1	Kd	264
Cc1c(C(=O)N2CC(N3CCN(C(=O)c4nccs4)CC3)C2)sc2nc3n(c(=O)c12)CCC3	Kd	74
O=C(c1ccc2c(ccn2-c2cncnc2)c1)N1CC(N2CCN(C(=O)c3nccs3)CC2)C1	Kd	215
CC1(C)c2ccccc2-c2ccc(C(=O)N3CC(N4CCN(C(=O)c5nccs5)CC4)C3)cc21	Kd	19

Record Kd for all entries; do not skip any.
1. CN(c1ccccc1)S(=O)(=O)c1ccc(C(=O)N2CC(N3CCN(C(=O)c4nccs4)CC3)C2)cc1
2. O=C(c1ccc(-c2nc(-c3cccc(C(F)(F)F)c3)cs2)cc1)N1CC(N2CCN(C(=O)c3nccs3)CC2)C1

1: 1690; 2: 8

Record Kd for all entries; do not skip any.
1. O=C(c1ccc2c(ccn2-c2ccccn2)c1)N1CC(N2CCN(C(=O)c3ccc[nH]3)CC2)C1
2. Cc1ccc(-n2ccc3cc(C(=O)N4CC(N5CCN(C(=O)c6ccc[nH]6)CC5)C4)ccc32)cn1
3. Cc1cc(C(=O)N2CC(N3CCN(C(=O)c4nccs4)CC3)C2)c(C)n1CC(F)(F)F

1. 153
2. 278
3. 1980

Quick check: Kd of `O=C(c1ccc2cc(-c3ccccc3)[nH]c2c1)N1CC(N2CCN(C(=O)c3nccs3)CC2)C1` ?
40

----------
Target: mutant MGL (Homo sapiens, UniProt Q99685, L169S/L176S)
Sequence (Q99685 1-303 L169S/L176S): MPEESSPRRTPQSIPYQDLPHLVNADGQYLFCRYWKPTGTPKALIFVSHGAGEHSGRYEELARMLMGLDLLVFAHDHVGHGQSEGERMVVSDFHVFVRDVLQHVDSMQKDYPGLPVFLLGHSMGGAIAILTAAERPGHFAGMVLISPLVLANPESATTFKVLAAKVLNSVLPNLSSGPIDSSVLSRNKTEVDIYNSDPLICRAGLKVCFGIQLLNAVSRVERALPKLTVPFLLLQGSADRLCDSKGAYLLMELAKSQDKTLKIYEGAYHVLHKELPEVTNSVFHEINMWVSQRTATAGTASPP
Experiment: MGL ThermoFluor assay - mutant
Format: binding
Conditions: ThermoFluor concentration-response, read-out: MGL mutant ThermoFluor Kd
READOUT: Kd (nM)
Give bare numbers, in nM.

COMPOUND	TARGET_OR_SYSTEM	Kd [nM]
O=C(c1ccc[nH]1)N1CC(N2CCN(C(=O)c3cc4cc(C(F)(F)F)ccc4s3)CC2)C1 [Cpd 722]	mutant MGL (Homo sapiens, UniProt Q99685, L169S/L176S)	82
O=C(c1ccc(Oc2cccc(Cl)c2)nc1)N1CC(N2CCN(C(=O)c3nccs3)CC2)C1 [Cpd 683]	mutant MGL (Homo sapiens, UniProt Q99685, L169S/L176S)	39
O=C(c1ccccc1)N1CCN(C2CN(C(=O)C3CCC(c4ccccc4)CC3)C2)CC1 (centres unmarked) [Cpd 106]	mutant MGL (Homo sapiens, UniProt Q99685, L169S/L176S)	154

Record Kd for all entries; do not skip any.
1. O=C(c1ccccc1)N1CCN(C2CN(C(=O)c3ccc(Oc4cccc(C(F)(F)F)c4)cc3)C2)CC1 [Cpd 419]
2. O=C(c1ccccc1)N1CCN(C2CN(C(=O)c3ccc4c(-c5ccc(C(F)(F)F)cc5)ncnc4c3)C2)CC1 [Cpd 597]
3. O=C(c1ccc(C2CCCCC2)cc1)N1CC(N2CCN(C(=O)c3ccccn3)CC2)C1 [Cpd 4]

123
153
143

Record Kd for all entries; do not skip any.
1. O=C(c1ccccc1)N1CCN(C2CN(C(=O)c3ccc(NCc4ccccc4Cl)cc3)C2)CC1 [Cpd 492]
2. N#Cc1ccc(-c2ccc(C(=O)N3CC(N4CCN(C(=O)c5nccs5)CC4)C3)cc2)cc1 [Cpd 167]

1: 167; 2: 55.8

Values were extracted from patent US8362000B2.
